Catalogue of inhibition values
molecular target: Vasoactive intestinal polypeptide receptor 2 (Homo sapiens); experiment: Antagonist activity at recombinant human N-terminal signal peptide/FLAG epitope-tagged Rluc8-fused VIPR2 expressed in HEK293 cells assessed as inhibition of VIP-induced human mVenus-beta-arrestin2 binding at 5 uM preincubated for 5 mins with luciferin, coelenterazine H followed by VIP addition measured after 5 mins by BRET assay relative to control; format: cell-based
parameterMeasured: inhibition (%)

>>> valuereported("O=C(NC[C@@H](O)C[C@@H](Cc1ccccc1)C(=O)N[C@H]1c2ccccc2C[C@H]1O)c1c(Cl)cc(Cl)cc1Cl")
31.5
>>> valuereported("O=C(NC[C@@H](O)C[C@@H](Cc1ccccc1)C(=O)N[C@H]1c2ccccc2C[C@H]1O)c1ccncc1")
-8.8
>>> valuereported("CC(=O)Nc1ccc(S(=O)(=O)NC[C@H](C[C@@H](Cc2ccccc2)C(=O)N[C@H]2c3ccccc3C[C@H]2OC(C)=O)OC(C)=O)cc1")
9.7
>>> valuereported("N#Cc1ccc(S(=O)(=O)NC[C@@H](O)C[C@@H](Cc2ccccc2)C(=O)N[C@H]2c3ccccc3C[C@H]2O)cc1")
90.4
>>> valuereported("O=C(NC1CCCCCC1)[C@@H](Cc1ccccc1)C[C@H](O)CNS(=O)(=O)c1ccc([N+](=O)[O-])cc1")
6.8
>>> valuereported("CN(C)c1ccc(S(=O)(=O)NC[C@@H](O)C[C@@H](Cc2ccccc2)C(=O)N[C@H]2c3ccccc3C[C@H]2O)cc1")
8.7
>>> valuereported("CCCCNC(=O)c1ccc(S(=O)(=O)NC[C@@H](O)C[C@@H](Cc2ccccc2)C(=O)N[C@H]2c3ccccc3C[C@H]2O)cc1")
-5.5

Entry source: ChEMBL document CHEMBL3879914
